Quick reference: CC50 of the listed items.
Assay: Cytotoxicity against human HepG2 cells
Assay type: cell-based
Conditions: read-out: TC50 (the source's name)

- compoundStructureString: "Fc1cccc(COc2ccc(Nc3ncnc4cc(C#C[C@@H]5CCCN5)sc34)cc2Cl)c1"
  CC50: "9.6 µM"
- compoundStructureString: "Fc1cccc(COc2ccc(Nc3ncnc4sc(C#CCN5CCCC5)cc34)cc2Cl)c1"
  CC50: "> 30 µM"
- compoundStructureString: "CN(CC#Cc1cc2ncnc(Nc3ccc(OCc4cccc(F)c4)c(Cl)c3)c2s1)Cc1ccccc1"
  CC50: "> 27 µM"
- compoundStructureString: "CN1CCN(CC#Cc2cc3ncnc(Nc4ccc(OCc5cccc(F)c5)c(Cl)c4)c3s2)CC1"
  CC50: "11 µM"
- compoundStructureString: "Fc1cccc(COc2ccc(Nc3ncnc4ccc(-c5cccc(N6CCOCC6)c5)cc34)cc2Cl)c1"
  CC50: "> 35 µM"
- compoundStructureString: "Fc1cccc(COc2ccc(Nc3ncnc4cc(C#Cc5ccccn5)sc34)cc2Cl)c1"
  CC50: "24 µM"
- compoundStructureString: "CC(C)CC#Cc1cc2ncnc(Nc3ccc(OCc4cccc(F)c4)c(Cl)c3)c2s1"
  CC50: "> 32 µM"
- compoundStructureString: "COCC#Cc1cc2ncnc(Nc3ccc(OCc4cccc(F)c4)c(Cl)c3)c2s1"
  CC50: "> 33 µM"
- compoundStructureString: "CCOC(=O)CN(C)CC#Cc1ccc2ncnc(Nc3ccc(OCc4cccc(F)c4)c(Cl)c3)c2c1"
  CC50: "> 28 µM"
